Please provide measured Cross-Reactivity Screen (mAb at 10 ug/mL) for the entries that follow.
- systemName: T1, human full-length Tie2 on cells (human, UniProt Q02763 23-1124)
- T1 construct: used here for Tie2 native on HUVEC and full-length Tie2 overexpressed on HEK293; also called Human Tie2; huTie2
- T1 sequence (Q02763 23-1124 limits assumed): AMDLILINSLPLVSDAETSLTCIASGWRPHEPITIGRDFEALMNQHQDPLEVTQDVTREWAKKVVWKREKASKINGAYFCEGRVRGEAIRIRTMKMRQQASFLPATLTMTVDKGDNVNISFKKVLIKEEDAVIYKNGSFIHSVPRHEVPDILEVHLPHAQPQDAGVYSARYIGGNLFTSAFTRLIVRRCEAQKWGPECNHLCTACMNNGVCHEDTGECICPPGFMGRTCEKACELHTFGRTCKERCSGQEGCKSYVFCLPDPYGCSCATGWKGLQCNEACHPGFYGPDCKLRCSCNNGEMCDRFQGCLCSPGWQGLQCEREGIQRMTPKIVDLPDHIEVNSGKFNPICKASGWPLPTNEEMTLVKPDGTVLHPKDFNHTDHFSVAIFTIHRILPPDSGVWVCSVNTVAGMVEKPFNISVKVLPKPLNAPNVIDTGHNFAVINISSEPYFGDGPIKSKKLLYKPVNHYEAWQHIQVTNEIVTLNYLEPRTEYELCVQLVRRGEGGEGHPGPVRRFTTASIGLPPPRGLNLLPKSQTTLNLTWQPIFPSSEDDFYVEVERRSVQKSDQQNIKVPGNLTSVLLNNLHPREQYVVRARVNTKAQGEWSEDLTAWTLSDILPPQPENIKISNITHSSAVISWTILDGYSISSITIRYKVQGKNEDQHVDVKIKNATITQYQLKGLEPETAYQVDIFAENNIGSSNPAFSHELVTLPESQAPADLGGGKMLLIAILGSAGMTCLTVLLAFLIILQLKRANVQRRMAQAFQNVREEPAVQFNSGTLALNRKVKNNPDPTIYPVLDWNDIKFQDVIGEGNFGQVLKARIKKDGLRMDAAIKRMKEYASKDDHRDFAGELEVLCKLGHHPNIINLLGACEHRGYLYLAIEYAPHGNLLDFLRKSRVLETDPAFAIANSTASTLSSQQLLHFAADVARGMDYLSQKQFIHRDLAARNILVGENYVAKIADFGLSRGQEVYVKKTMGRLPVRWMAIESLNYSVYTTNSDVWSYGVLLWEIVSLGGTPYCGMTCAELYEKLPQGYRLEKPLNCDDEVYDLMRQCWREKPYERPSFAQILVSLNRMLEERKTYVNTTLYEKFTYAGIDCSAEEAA
- testProtocol: flow cytometry on HEK293/Human Tie2 cells, mAb at 10 ug/mL
- Design: unit not given here
One number for each entry.

Before answering, review these 5 worked examples.
binder="human anti-Tie2 antibody #2 (antibody, V domains shown, also called Ab #2; Antibody Clone # 2) VH: DVQLVESGGGVVRPGESLRLSCAASGFSFINFAMTWVRQAPGEGPEWVSLISDDGRGNRPYYADSVKGRFTISRDNSKNILYLQMNSLRVEDTATYYCAKVSWDVFFDYWGLGTVVTVSS VL: EIVLTQSPGTVSLSPGERVTLSCRASQPIDVYLAWYQQKPGQAPRLLIYGANRRAIDIPDRFSGSGSGTEFTLTINSLQNEDFAVYFCQQYMTWPPVTFGGGTKVEIK" readoutnumber=64.9
binder="human anti-Tie2 antibody #3 (antibody, V domains shown, also called Ab #3; Antibody Clone # 3) VH: DVQLVESGGGVVRPGESLRLSCTASGFTFDSYGMSWVRQAPGKGLEWVSSINVGDNTYYADSVRGRFIISRDSSRNTLYLQMNSLTAEDTAVYYCANWNSFFDYWGLGTLVTVSS VL: EIVLTQSPGTLSLSPGEIATLSCRASQNVRSDLAWYQQKPGQAPRLLIYDASNRATGIPDRFSGSGSGTDFTLTISSLQSEDFAVYYCQQYSNWPPLTFGGGTKVEIK" readoutnumber=40.2
binder="anti-Tie2 antibody #31 (antibody, V domains shown, also called Ab #31; Antibody Clone # 31) VH: DVQLVESGGGVVRPGESPRLSCAASGFSFINFAMTWVRQAPGEGPEWVSLISDDGRGNRPYYADSVKGRFTISRDNSKNILYLQMNSLRVEDTATYYCAKVSWDVFFDYWGLGTLVTVSS VL: EIVLTQSPGTVSLSPGERVTLSCRASQPIDVYLAWYQQKPGQAPRLLIYGANRRAIDIPDRFSGSGSGTEFTLTINSLQNEDFAVYFCQQYMTWPPVTFGGGTKVEIK" readoutnumber=65.3
binder="human anti-Tie2 antibody #1 (antibody, V domains shown, also called Ab #1; Antibody Clone # 1) VH: DVQLVESGGGVVRPGESLRLSCAASGFTFSSYAMSWVRQAPGEGLEWVARISDYTIYYADSVKGRFTISRDNSKNTLYLQMNSLRAEDTAVYYCAKSGPKSGKYWNNFFDSWGLGTLVTVSS VL: EIVLTQSPGTLSVSPGERATLTCRASQSVKTDLAWYQQKPGQAPRLLIYGATTRATGIPARFSGSGSGTEFTLTITNLQSEDFAVYYCQQYYVWPPLTFGGGTKVEIK" readoutnumber=60.7
binder="anti-Tie2 antibody #6 (antibody, V domains shown, also called Ab #6; Antibody Clone # 6) VH: DVQLVESGGGVVRPGESLRLSCTASGFSFDVYAMTWVRQAPGKGLEWLTLISGTGRMTYYADSVKGRFTVSRDNSKKTLYLQMNSLRAEDTAVYYCAKDPFGHGFFDYWGLGTLVTVSS VL: EIVLTQSPGTLTLSPGETATLTCRASQSVNRNLAWYQEKPDQAPRLLIYDARTRATGVPDRFSGSGSGTDFTLTINSLQSEDFAVYVCQQYYDWPPFTFGGGTKVEIK" readoutnumber=63.7

Would you kindly look at the next entry?
Qu. Which Cross-Reactivity Screen (mAb at 10 ug/mL) is reported for this binder? anti-Tie2 antibody #5 (antibody, V domains shown, also called Ab #5; Antibody Clone # 5) VH: DVQLVESGGGVVRPGESLRLSCTASGFSFDVYAMTWVRQAPGKGLEWLTLISGTGRMTYYADSVKGRFTVSRDNSKKTLYLQMNSLRAEDTAVYYCAKDPFGHGFFDYWGLGTLVTVSS VL: EIVLTQSPGTLSLSPGERATLSCRASQTVGSKLAWYQQKPGQAPRLLIYDASTRATGIPDRFSGSGSGTDFTLTISSLQSEDFAVYYCQQYNNWPPLTFGGGTKVEIK
Ans. 60.2
